test system: SN12C renal; experiment: NCI-60 one-dose screen, 48 h (100 = growth as untreated, 0 = no growth, -100 = all killed); conditions: 10 µM
This is part of a sample that, as a whole, favours compounds with a hit. Of some 83,000 tested, about 20% had one in any assay. Calls of active or inactive are those of the source. How the source made its calls: active means growth percent below 10; inactive means the rest.
endpoint_name: growth

[[record]]
compound = "CC(=O)C1CCC2C3CC=C4CC(SC(=N)N)CCC4(C)C3CCC12C (stereo unspecified)"
test_system = "SN12C renal"
val = "47.1% (inactive)"

[[record]]
compound = "CC1OC2CC(=O)OC2C2=C1C(=O)c1c(O)c3c(c(O)c1C2=O)C1CC(O)C3(O)C(C)O1 (stereo unspecified)"
test_system = "SN12C renal"
val = "-33% (active)"

[[record]]
compound = "N#CCc1csc(Cc2ccccc2)n1"
test_system = "SN12C renal"
val = "101% (inactive)"

[[record]]
compound = "O=C(O)c1ccc(-n2cc(CNc3ccc(Oc4ccccc4)cc3)c(-c3ccccc3)n2)cc1"
test_system = "SN12C renal"
val = "93.4% (inactive)"

[[record]]
compound = "COc1ccc(C(c2ccc(OCCN(C)C)cc2)c2cc3ccccc3c3ccccc23)cc1 (stereo unspecified)"
test_system = "SN12C renal"
val = "64.4% (inactive)"

[[record]]
compound = "O=C1C=C(Nc2cccc(Br)c2)c2ccccc2C1=O"
test_system = "SN12C renal"
val = "53.6% (inactive)"

[[record]]
compound = "O=C(CN(C1CCCCC1)C1CCCCC1)Nc1ccc(S(=O)(=O)c2ccc(NC(=O)CN(C3CCCCC3)C3CCCCC3)cc2)cc1"
test_system = "SN12C renal"
val = "30.6% (inactive)"

[[record]]
compound = "Cc1ccc(C(C)C)c(O)c1NC(=O)OC(C)C"
test_system = "SN12C renal"
val = "91.9% (inactive)"

[[record]]
compound = "CCn1cc(CNc2ccc(C(=O)Nc3ccc4ccccc4c3)cc2)c(C)n1"
test_system = "SN12C renal"
val = "85.7% (inactive)"

[[record]]
compound = "CN1CCN(CC(=O)Nc2cccc(-n3cc(-c4ccncc4)c(-c4ccc(Cl)c(O)c4)n3)c2)CC1"
test_system = "SN12C renal"
val = "64.9% (inactive)"

[[record]]
compound = "CCC(c1ccc(OC)cc1)C(CC)c1ccc(O)c(CN2CCN(C)CC2)c1 (stereo unspecified)"
test_system = "SN12C renal"
val = "55.1% (inactive)"

[[record]]
compound = "CN1C(=O)C2(Nc3cc(Cl)ccc3S2)c2cc(Cl)ccc21 (stereo unspecified)"
test_system = "SN12C renal"
val = "82.2% (inactive)"

[[record]]
compound = "CN1C(C(=O)Nc2ccccn2)=C(O)c2sc(Cl)cc2S1(=O)=O"
test_system = "SN12C renal"
val = "103% (inactive)"

[[record]]
compound = "Cc1ccc(C)c(COc2cc(NC(=O)c3ccc4c(c3)OCO4)ccc2N(C)S(C)(=O)=O)c1"
test_system = "SN12C renal"
val = "27.2% (inactive)"

[[record]]
compound = "CCC(C)[C@H](NC(C)=O)C(=O)N[C@@H](CCCNC(=N)N)C(=O)N[C@@H](CCCCN)C(=O)N[C@@H](CC1CCC(O)CC1)C(=O)NC(C(=O)N[C@@H](CCSC)C(=O)N[C@@H](CCCNC(=N)N)C(=O)N[C@@]1(C)CCC/C=C\\CCC[C@@](C)(C(=O)NC(C(=O)N[C@@H](CCC(=O)O)C(=O)N[C@@H](CC(C)C)C(=O)N[C@H](C(=O)N[C@@H](CCC(=O)O)C(N)=O)C(C)C)[C@@H](C)O)NC(=O)[C@H](CCC(N)=O)NC(=O)[C@H](CC(C)C)NC(=O)[C@H](CC(C)C)NC1=O)[C@@H](C)O (stereo partly specified)"
test_system = "SN12C renal"
val = "93.2% (inactive)"

[[record]]
compound = "CC(C)=CCC/C(C)=C/CC/C(C)=C/CC/C=C(\\C)CC/C=C(\\C)CCC(=O)Nc1ccn(C2OC(CO)C(O)C2(F)F)c(=O)n1 (stereo unspecified)"
test_system = "SN12C renal"
val = "15.3% (inactive)"

